Test system: miR-21
procedureDetails: miR-21 luciferase sensor assay in Hela cells
Format: cell-based
conditionNotes: 4 nM oligonucleotide; Hela cells
Property: luciferase value normalized to beta-galactosidase activity; scope: individual substances
readoutLabel: luciferase value normalized to beta-galactosidase activity

[[record]]
substance = "TE^MeCEAEAECSAETECSAEGETECSTEGEAEUSAEAEGECSTEAE (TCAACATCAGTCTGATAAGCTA; modified nucleosides and phosphorothioate, code letters not given here, further chemistry not given here) [Compound 25068]"
endpointresult = 64

[[record]]
substance = "AECSAETECSAEGETECSTEGEAEUSAEAEGECSTEAE (ACATCAGTCTGATAAGCTA; anti-miR; sugar and backbone modifications, code letters not given here, further chemistry not given here) [Compound 25072]"
endpointresult = 76

[[record]]
substance = "AECSATCSAGTCSTGAUSAAGCSTAE (ACATCAGTCTGATAAGCTA; modified nucleosides, phosphorothioate linkages, chemistry not fully specified) [Compound 25070]"
endpointresult = 99

